target-system: F508delCFTR (Homo sapiens, UniProt P13569, DEL508-508)
Construct: expressed in transfected cells; host or cells: CFBE41o- human lung-derived epithelial cells (CFBE4lo-F508delCFTR-HRP), doxycycline-inducible
Sequence (P13569 with tags, fused parts or gaps DEL508-508): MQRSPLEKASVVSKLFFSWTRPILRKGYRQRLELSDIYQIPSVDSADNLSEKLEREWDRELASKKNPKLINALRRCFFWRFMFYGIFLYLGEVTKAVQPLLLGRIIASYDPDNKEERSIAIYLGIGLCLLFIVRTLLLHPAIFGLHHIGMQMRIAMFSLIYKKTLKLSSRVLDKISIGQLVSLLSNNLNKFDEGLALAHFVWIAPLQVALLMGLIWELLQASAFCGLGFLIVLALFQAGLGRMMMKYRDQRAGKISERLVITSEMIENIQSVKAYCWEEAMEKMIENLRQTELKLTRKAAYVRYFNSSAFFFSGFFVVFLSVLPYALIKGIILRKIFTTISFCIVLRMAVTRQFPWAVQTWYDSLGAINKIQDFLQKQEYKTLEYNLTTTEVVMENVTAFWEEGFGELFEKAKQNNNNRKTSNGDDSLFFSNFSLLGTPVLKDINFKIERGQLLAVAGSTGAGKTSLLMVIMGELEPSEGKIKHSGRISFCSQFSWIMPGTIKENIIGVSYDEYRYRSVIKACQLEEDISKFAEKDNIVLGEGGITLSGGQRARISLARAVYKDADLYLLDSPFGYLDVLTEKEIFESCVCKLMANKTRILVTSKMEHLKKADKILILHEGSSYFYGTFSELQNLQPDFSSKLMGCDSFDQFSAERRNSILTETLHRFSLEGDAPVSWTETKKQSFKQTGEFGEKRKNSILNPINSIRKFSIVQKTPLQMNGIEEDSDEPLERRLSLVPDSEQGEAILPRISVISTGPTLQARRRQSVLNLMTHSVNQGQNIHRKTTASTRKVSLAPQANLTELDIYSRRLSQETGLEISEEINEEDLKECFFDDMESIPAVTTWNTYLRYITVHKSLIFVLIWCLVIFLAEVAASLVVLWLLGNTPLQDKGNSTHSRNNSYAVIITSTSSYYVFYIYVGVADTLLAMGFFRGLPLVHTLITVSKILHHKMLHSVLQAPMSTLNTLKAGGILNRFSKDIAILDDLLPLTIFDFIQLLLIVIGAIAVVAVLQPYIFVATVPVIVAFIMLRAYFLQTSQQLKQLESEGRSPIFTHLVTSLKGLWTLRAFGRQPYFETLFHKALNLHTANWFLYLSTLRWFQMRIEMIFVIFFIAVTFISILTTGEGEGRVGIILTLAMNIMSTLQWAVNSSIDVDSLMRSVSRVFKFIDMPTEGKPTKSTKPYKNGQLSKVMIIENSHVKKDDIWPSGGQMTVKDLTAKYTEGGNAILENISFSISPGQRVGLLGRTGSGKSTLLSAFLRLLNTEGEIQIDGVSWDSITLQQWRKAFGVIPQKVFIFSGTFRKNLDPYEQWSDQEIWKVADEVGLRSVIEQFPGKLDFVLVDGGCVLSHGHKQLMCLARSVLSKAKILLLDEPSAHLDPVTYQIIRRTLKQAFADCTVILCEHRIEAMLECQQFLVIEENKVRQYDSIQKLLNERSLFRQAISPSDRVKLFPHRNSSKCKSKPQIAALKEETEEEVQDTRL
assay-name: Cell Surface Expression-Horse Radish Peroxidase (CSE-HRP) Assay;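 note: co-corrector and positive control are both the same reference corrector at 2 µM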
Assay type: cell-based
applied-conditions: with co-corrector (2 μM of 3-[(2R,4R)-4-({[1-(2,2-difluoro-1,3-benzodioxol-5-yl)cyclopropyl]carbonyl}amino)-7-methoxy-3,4-dihydro-2H-chromen-2-yl]benzoic acid); maximum at any tested concentration, normalized to on-plate positive control
reported-property: Maximum % activity (with co-corrector)

Worked cases, Maximum % activity (with co-corrector) given:
{"columns": ["compound", "Maximum % activity (with co-corrector)"],
 "data": [
  ["COc1ccc(C(C)(C)C)cc1CN[C@H]1[C@H](C(C)(C)C)[C@@H](C(=O)O)N(C(=O)c2cc(C)n(C)n2)[C@H]1c1ccccc1", "+++ (≥350)"],
  ["Cc1cc(C(F)(F)F)cc(N[C@H]2[C@H](C(C)(C)C)[C@@H](C(=O)O)N(C(=O)C3CCCCC3C(F)(F)F)[C@H]2c2cccnc2N(C)C)n1 (stereo partly drawn)", "++ (≥150 and <350)"],
  ["COc1ccc(C(F)(F)F)cc1CN[C@H]1[C@H](C(C)(C)C)[C@@H](C(=O)O)N(C(=O)OC(C)C)[C@H]1c1ccccc1C", "+++ (≥350)"],
  ["CC(C)OC(=O)N1[C@H](c2ccccc2)[C@H](Nc2cccc(C(F)(F)F)n2)[C@@H](C(C)(C)C)[C@@H]1C(=O)O (racemic)", "++ (≥150 and <350)"],
  ["COc1ccc(C(C)(C)C)cc1CN[C@H]1[C@H](C(C)(C)C)[C@@H](C(=O)O)N(C(=O)[C@@H]2CCC[C@](C)(O)C2)[C@H]1c1ccccc1", "+++ (≥350)"],
  ["C#CCOC(=O)N1[C@H](C(=O)O)[C@@H](C(C)(C)C)[C@H](NCc2cc(C(C)(C)C)ccc2OC)[C@@H]1c1ccccc1", "+++ (≥350)"],
  ["CC(C)N(C(=O)N1[C@H](c2ccccc2)[C@H](NCc2ccccc2OC(F)F)[C@@H](C)[C@@H]1C(=O)O)C(C)C (racemic)", "++ (≥150 and <350)"],
  ["COc1nc(C2CCC2)ccc1CN[C@H]1[C@H](C(C)(C)C)[C@@H](C(=O)O)N(C(=O)OC(C)C)[C@H]1c1cccnc1N(C)C", "+++ (≥350)"],
  ["COc1nc2ccccc2cc1CN[C@H]1[C@H](C(C)(C)C)[C@@H](C(=O)O)N(C(=O)C2CCOCC2)[C@H]1c1ccccc1C(C)C", "+++ (≥350)"],
  ["COc1ccc(C(C)(C)C)cc1CN[C@H]1[C@H](C(C)(C)C)[C@@H](C(=O)O)N(C(=O)C2CCCCO2)[C@H]1c1cccnc1OC(F)F (single isomer, unassigned) [II-490]", "+++ (≥350)"]
]}

Req: # Maximum % activity (with co-corrector) lookup, item COc1ncc(-c2ccc(F)cc2C)cc1CN[C@H]1[C@H](C(C)(C)C)[C@@H](C(=O)O)N(C(=O)C2CCCCC2)[C@H]1c1cccnc1N(C)C
Resp: +++ (≥350)

Req: # Maximum % activity (with co-corrector) lookup, item CC(C)OC(=O)N1[C@H](c2ccccc2)[C@H](Nc2cc(C(F)(F)F)ccn2)[C@@H](C(C)(C)C)[C@@H]1C(=O)O (racemic)
Resp: +++ (≥350)
